Ref: paper doi:10.1101/2021.04.12.439490v1

- target.or.system: full-length WDR5, C-terminal NanoLuc fusion (WDR5-C) (Homo sapiens)
- assay.method.text: NanoBRET tracer titration
measurement.name: Kd

[
  {
    "compound": "CN1CCN(c2ccc(-c3ccc(C(=O)NCCCOCCOCCOCCCNC(=O)CCc4ccc5n4[B-](F)(F)[N+]4=C(c6ccc[nH]6)C=CC4=C5)cc3)cc2NC(=O)c2c[nH]c(=O)cc2C(F)(F)F)CC1 [19c]",
    "measurement.name": "Kd",
    "reported": "~1 µM"
  }
]
